Assignment: determine reported growth for the given molecules.
system: SR leukemia; test: NCI-60 one-dose screen, 48 h (100 = growth as untreated, 0 = no growth, -100 = all killed); settings: 10 µM unless noted
Compounds without any hit were thinned out: in the full panel of roughly 83,000, 20% have a hit.
Numbers only, in %.

CSCCC(NC(=O)C(Cl)Cl)C(=O)O (centres undefined)    91.5

# map each molecule to its growth
1. N#C/C(=C\c1ccc2c(c1)OCO2)c1ccccc1
2. Nc1ncnc(Nc2ccc(C(F)(F)F)cc2)n1
3. CC(=O)NCNC(C)=O
4. c1ccc(-c2ccc3ccccc3c2)cc1
5. CCCC1OC(c2ccco2)OCC1CC (centres undefined)
6. NNc1ncnc2c1ncn2C1OC(CO)C(O)C1O (centres undefined)

a:
1: 14.2; 2: 102; 3: 85.3; 4: 80.7; 5: 106; 6: 17.5

# map each molecule to its growth
1. COc1c(CNC(=O)CCl)cc2[nH]c(C)cc2c1CNC(=O)CCl
2. O=C1NCC2CCCC1C2 (centres undefined)
3. COc1cc(-c2ccc(NC(=O)CC(C)=O)c(OC)c2)ccc1NC(=O)CC(C)=O
4. CCCC(=O)CC(=O)c1ccccc1

a:
1: 34.9; 2: 110; 3: 93.7; 4: 107

* * *

tested on: CAKI-1 renal; assay: NCI-60 one-dose screen, 48 h; settings: 10 µM unless noted
This is part of a sample that, as a whole, favours compounds with a hit. Of some 83,000 tested, about 20% had one in any assay. Calls of active or inactive are those of the source. How the source made its calls: active means growth percent below 10; inactive means the rest.
Outcome field: choose from active, inactive

Solved cases below.
O=Cc1c(O)c2ccccc2[nH]c1=O    inactive
c1ccc(-c2ccc3ccccc3c2)cc1    inactive
C/C(=N\N=C(/C)c1cccc([N+](=O)[O-])c1)c1cccc([N+](=O)[O-])c1    inactive
CC1(C)CC(=O)C=C(N)C1    inactive
O=c1cc(Cl)nc2ccccn12    inactive

q: Dear all, I need the recorded test outcome for O=C(NC(=S)N1CC=CCC1)c1ccccc1 , thank you.
a: inactive

q: Dear all, I need the recorded test outcome for Clc1cccc(Cl)c1CSc1nc2ccccc2n2cccc12 , thank you.
a: inactive

q: Dear all, I need the recorded test outcome for CC(C)c1ncc([N+](=O)[O-])n1C , thank you.
a: inactive

q: Dear all, I need the recorded test outcome for Cn1c(=O)c2[nH]c(CC(=O)O)nc2n(C)c1=O , thank you.
a: inactive

* * *

system: MALME-3M melanoma; assay: NCI-60 one-dose screen, 48 h (100 = growth as untreated, 0 = no growth, -100 = all killed); settings: 10 µM unless noted
This is part of a sample that, as a whole, favours compounds with a hit. Of some 83,000 tested, about 20% had one in any assay.
recorded endpoint: growth (%)
Answers are plain numbers, in %.

# map each compound to its growth
1. O=C(CCl)Nc1ccccc1SCc1cc(Cl)cc2c1OCOC2
2. COc1ccc(Br)c(C=O)c1
3. O=S1(=O)c2ccccc2Oc2ccccc21
4. CC1CCC(C(C)(C)[N+](C)(C)C)CC1 (centres undefined)
5. OC(CBr)CCBr (centres undefined)

a:
1: -69.1; 2: 66.2; 3: 110; 4: 96.1; 5: 85.6

# map each compound to its growth
1. NC(=S)N/N=C/c1ccc(OC(=O)COc2ccccc2)cn1
2. O=C(O)Cc1ccccn1

a:
52.2
85.7

* * *

Assignment: determine reported growth for the given molecules.
test system: NCI-H23 lung; test: NCI-60 one-dose screen, 48 h (100 = growth as untreated, 0 = no growth, -100 = all killed); settings: 10 µM unless noted
This is part of a sample that, as a whole, favours compounds with a hit. Of some 83,000 tested, about 20% had one in any assay. The source made the active and inactive calls. The calls were made as follows: active = growth percent below 10; inactive = the rest.

A selection of reference data follows.
O=C1CSc2ccccc2N1    99.8% (inactive)
NC(CSSCC(N)C(=O)O)C(=O)O (centres undefined)    20.2% (inactive)
COc1ccc(C)cc1NC(=O)SC(C)C    102% [100 µM] (inactive)
CCOC(=O)c1ccc(NC(=O)Nc2nccs2)cc1    19.4% (inactive)
CC(=O)NC(CCC(=O)c1ccccc1)C(=O)O (centres undefined)    101% (inactive)

# map each molecule to its growth
1. CCOC(=O)/C(C#N)=C\c1c[nH]c2ccccc12
2. CC(CO)(CO)C(=O)O
3. COC(c1ccc2c(c1)OCO2)C(C)Br (centres undefined)
4. C=C(C)COc1ccc(C(C)(C)C)cc1
5. S=c1nc(-c2ccccn2)c(-c2ccccn2)n[nH]1

a:
["86.5% (inactive)", "110% (inactive)", "95.2% (inactive)", "108% (inactive)", "100% (inactive)"]

* * *

Assignment: determine reported growth for the given compounds.
system: HS 578T breast; experiment: NCI-60 one-dose screen, 48 h (100 = growth as untreated, 0 = no growth, -100 = all killed); settings: 10 µM unless noted
Compounds without any hit were thinned out: in the full panel of roughly 83,000, 20% have a hit. Calls of active or inactive are those of the source. Rule for the calls: active = growth percent below 10; inactive = the rest.

# map each compound to its growth
1. Cc1ccc(O)c(N)c1
2. O=C1Nc2ccccc2/C1=C\c1ccccc1O
3. CC(=O)C1C(=O)C(=O)N(c2ccc(Cl)c(Cl)c2)C1=O (configuration not stated)
4. O=C(CCl)Nc1ccccc1SCc1cc(Cl)cc2c1OCOC2

a:
1: 106% (inactive); 2: 86.2% (inactive); 3: 103% (inactive); 4: 102% (inactive)

* * *

system: A498 renal; test: NCI-60 one-dose screen, 48 h (100 = growth as untreated, 0 = no growth, -100 = all killed); conditions: 10 µM unless noted
Compounds without any hit were thinned out: in the full panel of roughly 83,000, 20% have a hit.
recorded endpoint: growth (%)
One number for each entry, in %.

A selection of reference data follows.
CC(=O)Oc1c(Cl)cccc1-c1ccccc1    96.9
C=COC(=O)CCOCC(CC)CCCC (configuration not stated)    91.9
CC1CC2C3CCC4=CC(=O)CCC4(C)C3CCC2(C)C1(O)C(=O)CO (configuration not stated)    73
O=C(c1cccc(C(=O)c2ccc3c4c(cccc24)C(=O)N(c2ccccc2)C3=O)c1)c1ccc2c3c(cccc13)C(=O)N(c1ccccc1)C2=O    86.7

# map each compound to its growth
1. O=C(O)Cc1ccc(Cl)cc1
2. CC(C)(C)[Si](C)(C)OCC1OC(n2cnc3c(N)ncnc32)CC1OS(C)(=O)=O (configuration not stated)

a:
95.9
67.6

* * *

test system: MDA-MB-435 melanoma; assay: NCI-60 one-dose screen, 48 h; conditions: 10 µM unless noted
Compounds without any hit were thinned out: in the full panel of roughly 83,000, 20% have a hit. Active and inactive are the calls of the source. How the source made its calls: active means growth percent below 10; inactive means the rest.
Outcome field: choose from true (1) = active, false (0) = inactive

Solved cases below.
O=S(Cc1ccccc1)/C(=C/NC(=S)Nc1cc(Cl)ccc1Cl)c1ccccc1 (centres undefined)    false (0)
Nc1ncnc2c1ncn2C1OC(CO)C2OC21 (centres undefined)    false (0)
CN(C)c1ncnc2c1cnn2C    false (0)
CNc1ccccc1C(N)=O    false (0)

q: Dear all, I need the recorded test outcome for N#C/C(=C\c1ccc2c(c1)OCO2)c1ccccc1 , thank you.
a: true (1)

* * *

system: SF-295 CNS; assay: NCI-60 one-dose screen, 48 h; details: 10 µM unless noted
The panel holds about 83,000 compounds, 20% with a hit somewhere; the sample as a whole holds those more often. Active and inactive are the calls of the source. Rule for the calls: active = growth percent below 10; inactive = the rest.
Outcome field: choose from yes for active, no for inactive

Solved cases below.
CC(C)(C)[Si](C)(C)OCC1OC(n2cnc3c(N)ncnc32)CC1OS(C)(=O)=O (stereo not drawn)    no
CC(=O)N(C)N=Nc1ccc(C)cc1    no
COC(=O)C1=C(C)C(=O)CC1    no
Clc1cccc(Cl)c1CSc1nc2ccccc2n2cccc12    no
C/C(=N\O)c1ccccn1    no

# evaluate next
q: Dear all, I need the recorded test outcome for CC(=O)N(CCCCCCN(C(C)=O)C(C)=O)C(C)=O , thank you.
a: no

* * *

test system: HOP-92 NSCLC; assay: NCI-60 one-dose screen, 48 h (100 = growth as untreated, 0 = no growth, -100 = all killed); details: 10 µM unless noted
This is part of a sample that, as a whole, favours compounds with a hit. Of some 83,000 tested, about 20% had one in any assay.
recorded endpoint: growth (%)
Numbers only, in %.

A selection of reference data follows.
O=C1C=C(c2ccccc2)C(O)(c2ccccc2)C1 (configuration not stated)    163
C/C(=N\Nc1ccc([N+](=O)[O-])cc1[N+](=O)[O-])c1ccc(Br)cc1    94.5
O=C(O)c1ccc([N+](=O)[O-])cc1S(=O)(=O)O    119
COc1ccc(Br)c(C=O)c1    68.8
ClCC(Cl)[C@@H]1CC2C=CC1C2 (some centres not stated)    99.7
N#CC1(O)CCCCC1    96.5

# input for lookup
q: Recorded growth for N#C/C(=C\c1ccc(C#N)cc1)C(=O)c1ccccc1 , please?
a: 86.3
